# Test system: COLO 205 colon
# Assay overview: NCI-60 one-dose screen, 48 h
# Experimental setup: 10 µM unless noted
About 83,000 compounds went through this panel and 20% of them were active in at least one assay; those are over-represented in the sample as a whole. The source made the active and inactive calls. The calls were made as follows: active = growth percent below 10; inactive = the rest.
Labels: active, inactive

>  <Item smiles>
CCNCCCn1c2c(c3cc(OC)c(OC)cc3c1=O)C(=O)c1cc(OC)cnc1-2

>  <Class assignment>
inactive

$$$$
>  <Item smiles>
C/C(=N\NC(=S)Nc1ccc(Br)cc1)c1cc2ccccc2oc1=O

>  <Class assignment>
inactive

$$$$
>  <Item smiles>
C=C(C)C(=O)O[C@H]1C[C@@]2(C)OC(=CC2=O)/C(CO)=C\[C@H]2OC(=O)C(=C)[C@H]12

>  <Class assignment>
active

$$$$

---

# System: RPMI-8226 leukemia
# Assay overview: NCI-60 one-dose screen, 48 h (100 = growth as untreated, 0 = no growth, -100 = all killed)
# Experimental setup: 10 µM unless noted
The panel holds about 83,000 compounds, 20% with a hit somewhere; the sample as a whole holds those more often.
Measured metric: growth (%)

>  <Item smiles>
C=C(C)[C@@H]1CC[C@]2(C(=O)NCCCN(CCC#N)CCC#N)CC[C@]3(C)[C@H](CC[C@@H]4[C@@]5(C)CCC(=O)C(C)(C)[C@@H]5CC[C@]43C)[C@@H]12

>  <Target system>
RPMI-8226 leukemia

>  <Obs value>
103

$$$$
>  <Item smiles>
C=C1C(=O)O[C@@H]2/C=C(/C)C3=CC(=O)[C@@](C)(C[C@H](OC(=O)/C(C)=C\C)[C@@H]12)O3

>  <Target system>
RPMI-8226 leukemia

>  <Obs value>
-11.3

$$$$
>  <Item smiles>
Cn1nc(Nc2ccccc2)c(C(=O)NN)c1N

>  <Target system>
RPMI-8226 leukemia

>  <Obs value>
106

$$$$
>  <Item smiles>
O=C1Nc2ccc(Cl)cc2/C1=C/c1ccc(OCc2ccc(Br)cc2F)cc1

>  <Target system>
RPMI-8226 leukemia

>  <Obs value>
95.8

$$$$
>  <Item smiles>
C=C1C(=O)O[C@@H]2C[C@@H](C)[C@H](OC)CC(=O)[C@](C)(OC(C)=O)C[C@H](OC(=O)/C(C)=C\C)[C@@H]12

>  <Target system>
RPMI-8226 leukemia

>  <Obs value>
68.3

$$$$
>  <Item smiles>
Cc1ccc(NC(=O)c2cccc(CN3CCN(C)CC3)c2)cc1Oc1ccc(-c2[nH]nc3ncnc(N)c23)cc1

>  <Target system>
RPMI-8226 leukemia

>  <Obs value>
48.7

$$$$
>  <Item smiles>
O=C(/C=C/Nc1ccc(S(=O)(=O)O)cc1)c1ccc(F)cc1

>  <Target system>
RPMI-8226 leukemia

>  <Obs value>
95.9

$$$$
>  <Item smiles>
CN(C)c1ncc(/C=C2\SC(=S)N(Cc3ccccc3Cl)C2=O)s1

>  <Target system>
RPMI-8226 leukemia

>  <Obs value>
86.3

$$$$
>  <Item smiles>
COc1cc([C@H]2OC[C@H]3[C@@H]2CO[C@@H]3c2ccc(O)c(OC)c2)ccc1O

>  <Target system>
RPMI-8226 leukemia

>  <Obs value>
72.1

$$$$
>  <Item smiles>
N/C(=N\OC(=O)CSc1nc2ccccc2s1)c1ccc(Cl)cc1

>  <Target system>
RPMI-8226 leukemia

>  <Obs value>
99.4

$$$$
>  <Item smiles>
C=C1C(=O)O[C@@H]2C[C@@H](C)/C=C\C(=O)[C@](C)(OC(C)=O)C[C@H](OC(=O)/C(C)=C\C)[C@@H]12

>  <Target system>
RPMI-8226 leukemia

>  <Obs value>
-12.6

$$$$
>  <Item smiles>
CN1C(=O)/C(=C/C=C/c2ccco2)SC1=S

>  <Target system>
RPMI-8226 leukemia

>  <Obs value>
64.4

$$$$
>  <Item smiles>
N#Cc1ccc(S(=O)(=O)Nc2ccc(-c3cnc(N)[nH]3)cc2)cc1

>  <Target system>
RPMI-8226 leukemia

>  <Obs value>
104

$$$$
>  <Item smiles>
CNC(=O)c1cc(N2CCc3cc(NC(=O)Nc4ccc(Cl)c(Cl)c4)ccc32)ccn1

>  <Target system>
RPMI-8226 leukemia

>  <Obs value>
57.1

$$$$

---

# Test system: OVCAR-8 ovarian
# Assay overview: NCI-60 one-dose screen, 48 h
# Experimental setup: 10 µM unless noted
About 83,000 compounds went through this panel and 20% of them were active in at least one assay; those are over-represented in the sample as a whole. Activity calls are given as the source filed them. How the source made its calls: active means growth percent below 10; inactive means the rest.
Labels: yes (1) = active, no (0) = inactive

>  <Molecule>
COc1ccc(/C=C/C(=O)c2nnn(-c3ccc(C(=O)O)cc3)c2C)cc1OC

>  <Class assignment>
no (0)

$$$$
>  <Molecule>
O=S(=O)(Nc1ccc(I)c(Cl)c1)c1ccc(-c2cnc(C3CC3)o2)cc1

>  <Class assignment>
no (0)

$$$$
>  <Molecule>
C=C1C(=O)O[C@@H]2C[C@@H](C)/C=C\C(=O)[C@](C)(OC(C)=O)C[C@H](OC(=O)/C(C)=C\C)[C@@H]12

>  <Class assignment>
yes (1)

$$$$
>  <Molecule>
CCOC(=O)/C(F)=C/C1CC1CCc1cccc(C(F)(F)F)c1 (stereo not drawn)

>  <Class assignment>
no (0)

$$$$
>  <Molecule>
CCOC(=O)c1nn(-c2ccc(C)cc2)c(=O)c2c(N)c(C#N)c(-c3ccc(OC)cc3)cc12

>  <Class assignment>
no (0)

$$$$
>  <Molecule>
CCC(=O)Nc1ccc(-c2nc(-c3cccc(O)c3)c(-c3ccnc(Br)c3)[nH]2)cc1

>  <Class assignment>
no (0)

$$$$
>  <Molecule>
O=C1Nc2ccc(Br)cc2/C1=N\c1nnc(-c2ccc(Cl)cc2)o1

>  <Class assignment>
no (0)

$$$$
>  <Molecule>
COc1ccc(/C=N\NC(=O)c2ccc3nc(-c4ccc(Br)cc4)[nH]c3c2)cc1

>  <Class assignment>
no (0)

$$$$
>  <Molecule>
CCOC(=O)c1c(Nc2ccccc2)nn2c(-c3ccc(OC)c(OC)c3)ccnc12

>  <Class assignment>
no (0)

$$$$
>  <Molecule>
CC(C)SC1=NC(=C(C(=N1)NC2=ClC=CC=C2)C#N)C3=CC=CC=C3

>  <Class assignment>
no (0)

$$$$
>  <Molecule>
CC(=O)Oc1ccc(CCN2C(=O)CSC2=S)cc1

>  <Class assignment>
no (0)

$$$$
>  <Molecule>
CCN(CC)CCN1C(=O)c2c(c3c4cc(Br)ccc4[nH]c3c3ccc4ccccc4c23)C1=O

>  <Class assignment>
yes (1)

$$$$
>  <Molecule>
CC(C)=CCc1c(O)c(CC=C(C)C)c2c(c1O)C(=O)C1=C[C@@H]3C[C@H]4C(C)(C)O[C@@](C/C=C(\C)C(=O)O)(C3=O)[C@@]14O2

>  <Class assignment>
no (0)

$$$$
>  <Molecule>
O=C1c2c(c3c4cc(O)ccc4oc3c3[nH]c4ccccc4c23)C(=O)N1O

>  <Class assignment>
no (0)

$$$$
>  <Molecule>
CC1=C2C(=C[C@@](C)(COS(N)(=O)=O)[C@@H]2O)C(=O)[C@](C)(O)C12CC2

>  <Class assignment>
no (0)

$$$$
>  <Molecule>
CN1CCN(c2nc(-c3cnc4ccccc4n3)cc3ccccc23)CC1

>  <Class assignment>
no (0)

$$$$
>  <Molecule>
C/C(=C(/c1ccc(O)cc1)c1ccc(OCCN2CCCC2)cc1)c1ccc(Cl)cc1

>  <Class assignment>
no (0)

$$$$
>  <Molecule>
C=CCn1c(SCC(=O)Nc2cccc(C(=O)/C=C/c3ccccc3)c2)nc2ccccc2c1=O

>  <Class assignment>
no (0)

$$$$
>  <Molecule>
C=C1C(=O)O[C@@H]2C[C@@H](C)[C@H](OC)CC(=O)[C@](C)(OC(C)=O)C[C@H](OC(=O)/C(C)=C\C)[C@@H]12

>  <Class assignment>
no (0)

$$$$
>  <Molecule>
CN(C)c1ccc(/C=N/Nc2nc(N/N=C/c3ccc(N(C)C)cc3)nc(N3CCOCC3)n2)cc1

>  <Class assignment>
no (0)

$$$$
>  <Molecule>
Oc1ccc(CSc2nnc(-c3ccccc3)n2-c2ccccc2)c2cccnc12

>  <Class assignment>
no (0)

$$$$
>  <Molecule>
C#C[C@]1(O)CC[C@H]2[C@@H]3CC=C4c5sc(Nc6cccc(C)n6)nc5CC[C@]4(C)[C@H]3CC[C@@]21C

>  <Class assignment>
no (0)

$$$$
>  <Molecule>
C/C=C/C=C1\C[C@H]2CO[C@H](O2)C1=O

>  <Class assignment>
no (0)

$$$$
>  <Molecule>
C/C(=C(/c1ccc(O)cc1)c1ccc(OCCN2CCCCCC2)cc1)c1ccccc1

>  <Class assignment>
no (0)

$$$$
>  <Molecule>
Nc1nc(-c2cccc([N+](=O)[O-])c2)c(N=Nc2ccccc2[N+](=O)[O-])s1

>  <Class assignment>
yes (1)

$$$$
>  <Molecule>
COc1ccc2c(C3=C(c4c[nH]c5ccccc45)C(=O)N(O)C3=O)coc2c1

>  <Class assignment>
no (0)

$$$$
>  <Molecule>
Cc1cnc2nc(NN)[nH]n12

>  <Class assignment>
no (0)

$$$$
>  <Molecule>
O=C(c1cccc(F)c1)n1ccc2cc(NC(=S)Nc3cccnc3)ccc21

>  <Class assignment>
no (0)

$$$$
>  <Molecule>
C/C(=N\NC(=O)CSc1nc2sc3c(c2c(=O)n1-c1ccccc1)CCC(C)C3)c1ccc(Cl)cc1 (stereo not drawn)

>  <Class assignment>
no (0)

$$$$
>  <Molecule>
O=C(/C=C/c1cccc(O)c1)c1ccc(O)cc1

>  <Class assignment>
no (0)

$$$$
>  <Molecule>
O=[N+]([O-])c1ccc(-c2nnc(SCc3ccc(O)c4ncccc34)o2)cc1

>  <Class assignment>
no (0)

$$$$
>  <Molecule>
CCOC(=O)C1=C(C)N=C2Sc3ccccc3N2C1c1ccccc1 (stereo not drawn)

>  <Class assignment>
no (0)

$$$$
>  <Molecule>
N#Cc1c(-c2cccs2)cc(-c2cnccn2)nc1SCC(=O)NNC(=S)Nc1ccc(F)cc1

>  <Class assignment>
no (0)

$$$$
